tested_target: MNK1 (Homo sapiens)
protocol_summary: In vitro MNK kinase assay (Caliper LabChip mobility shift)
Type: biochemical
particulars: enzymatic, 1.2 mM ATP; read-out: IC50 Mnk1
quantity_measured: IC50

Example entries begin here.
Identify the reported IC50 for the following entry. CCN1CCN(C(=O)c2ccc(-c3cn4c(-c5ccc(Cl)cc5)cnc4cn3)cc2)CC1 [Example 45]
< 1000 nM

Identify the reported IC50 for the following entry. CC1(N2CCOCC2)CCN(C(=O)c2ccc(-c3ccc4ncc(-c5ccc(C#N)cc5)n4c3)cc2)CC1 [Example 163]
< 100 nM

Identify the reported IC50 for the following entry. NC1CCN(C(=O)c2ccc(-c3ccc4ncc(-c5ccc(Cl)cc5)n4c3)cc2)CC1 [Example 174]
< 100 nM

// moving on: another record for IC50
Identify the reported IC50 for the following entry. COc1cc(-c2ccc3ncc(-c4ccc(C#N)cc4)n3c2)ccc1C(=O)N1CCOCC1 [Example 158]
< 1000 nM
